Below is a list of entries, each paired with its recorded EC50 (nM) in Jurkat-41BB NFκB reporter assay value.
- measured-target: human 4-1BB expressed on cells (human, UniProt Q07011 24-255)
- Sequence (Q07011 24-255): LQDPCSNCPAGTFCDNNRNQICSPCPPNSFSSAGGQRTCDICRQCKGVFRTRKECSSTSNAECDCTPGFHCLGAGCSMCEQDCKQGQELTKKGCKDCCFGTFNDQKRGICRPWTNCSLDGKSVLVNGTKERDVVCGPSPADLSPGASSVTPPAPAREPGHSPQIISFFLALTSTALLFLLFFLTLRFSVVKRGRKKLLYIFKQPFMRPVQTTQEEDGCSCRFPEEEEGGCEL
- assay-details: cell-based or functional assay
Numbers only; they are read as nM.

VV02-1LP-317 (Fc fusion, not shown: a dimerising Fc or GST; small tags and cut ends, Llama nanobody tested as fusion with human IgG1 Fc (N297A)) VHH: EVDLVESGGGLVQPGGSLRLSCAASGFTFSRSAMSWARQAPGKGFEWVSGIYSGGSTYYVDSVEGRFTISRDNAKNTVYLQMNSLKPEDTAVYYCATWGSQQIGVWHEDDYWGQGTQVTVSS | 0.031

Alright, here's another binder for you.
Prompt: Name the recorded EC50 (nM) in Jurkat-41BB NFκB reporter assay of the item VV02-1LP-288 (Fc fusion, not shown: a dimerising Fc or GST; small tags and cut ends, Llama nanobody tested as fusion with human IgG1 Fc (N297A)) VHH: EVQVVESGGGLVQPGGSLRLSCAASGSSLDYSAIGWFRQAPGKEREGVLCISSSGDVTIYADSVKGRFTISRDNAKNTVYLQMNSLKPEDTAVYYCVAPRICSTYSSDDYWGQGTQVTVSS in your answer.
Completion: 0.052
